Cited source for all entries: patent US11117883B2

# Tested system: BAF3 FL KIT EX11DEL/V654A (Homo sapiens, UniProt P10721, V654A, cells depend on it, form not given)
# Construct: "BAF3 FL KIT EX11DEL/ V654A"
# Sequence (P10721 with tags, fused parts or gaps DEL557-558/V654A, form open): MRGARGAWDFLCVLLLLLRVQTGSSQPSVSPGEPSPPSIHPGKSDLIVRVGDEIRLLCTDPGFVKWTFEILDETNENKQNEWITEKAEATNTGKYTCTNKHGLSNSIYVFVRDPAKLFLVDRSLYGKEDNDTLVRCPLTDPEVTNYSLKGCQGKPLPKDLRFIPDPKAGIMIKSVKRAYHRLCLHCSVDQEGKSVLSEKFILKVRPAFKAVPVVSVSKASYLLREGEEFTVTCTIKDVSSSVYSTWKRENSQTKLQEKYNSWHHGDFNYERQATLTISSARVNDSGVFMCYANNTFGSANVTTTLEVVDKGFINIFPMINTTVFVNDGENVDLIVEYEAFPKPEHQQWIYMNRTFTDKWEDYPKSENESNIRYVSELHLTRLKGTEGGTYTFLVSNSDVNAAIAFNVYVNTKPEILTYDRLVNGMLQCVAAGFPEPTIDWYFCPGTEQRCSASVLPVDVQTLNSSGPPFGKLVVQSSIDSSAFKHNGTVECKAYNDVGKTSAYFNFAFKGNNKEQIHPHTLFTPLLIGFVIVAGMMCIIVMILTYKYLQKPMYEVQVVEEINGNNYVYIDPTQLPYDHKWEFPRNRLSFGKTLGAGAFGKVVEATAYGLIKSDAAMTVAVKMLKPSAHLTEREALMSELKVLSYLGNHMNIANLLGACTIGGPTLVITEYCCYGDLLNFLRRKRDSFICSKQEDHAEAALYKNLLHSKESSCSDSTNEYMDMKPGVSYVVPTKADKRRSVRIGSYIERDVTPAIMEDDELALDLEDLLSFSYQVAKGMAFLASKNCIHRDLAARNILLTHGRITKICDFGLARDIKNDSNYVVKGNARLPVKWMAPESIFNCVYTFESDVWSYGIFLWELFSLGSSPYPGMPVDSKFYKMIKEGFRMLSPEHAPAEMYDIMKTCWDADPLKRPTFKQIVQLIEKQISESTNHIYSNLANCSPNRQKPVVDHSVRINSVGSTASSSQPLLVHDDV
# Assay remarks: c-Kit assay: Ba/F3 KIT mutant viability (Cell Titer-Glo, 72 hours)
# Format: cell-based
# Condition summary: viability after 72 hours
Measured endpoint: GI50

Known GI50 results, listed for orientation:
INSERT INTO assay_data (compound, assay_value) VALUES
  ('Cc1ccc(C(=O)Nc2ccc(CN3CCCC3)c(C(F)(F)F)c2)cc1C#Cc1ccc2c(c1)ncn2-c1cnn(C)c1 [Compound I-29]', '50 to 100 nM'),
  ('Cc1ccc(C(=O)Nc2cc(C(F)(F)F)ccn2)cc1C#Cc1ccc2c(c1)ncn2C [Compound I-8]', '10 to 50 nM'),
  ('Cc1ccc(C(=O)Nc2cc(C(F)(F)F)ccn2)cc1C#Cc1ccc2c(c1)ncn2-c1cn(C)nn1 [Compound I-24]', '10 to 50 nM'),
  ('Cc1ccc(C(=O)Nc2cc(C(F)(F)F)ccn2)cc1C#Cc1ccc2c(c1)ncn2CCCN(C)C [Compound I-6]', '100 to 10000 nM'),
  ('Cn1cc(-n2cnc3cc(C#Cc4cc(C(=O)Nc5cc(C(F)(F)F)ccn5)ccc4F)ccc32)cn1 [Compound I-51]', '10 to 50 nM');

Supply measured GI50 of Cc1ccc(NC(=O)c2cc(C(F)(F)F)ccn2)cc1C#Cc1ccc2c(c1)ncn2-c1cnn(C2CCN(C)CC2)c1 [Compound I-40] in your reply. 100 to 10000 nM

Supply measured GI50 of Cc1ccc(C(=O)Nc2cc(C(F)(F)F)ccn2)cc1C#Cc1ccc2c(c1)ncn2-c1cn(C)cn1 [Compound I-23] in your reply. 10 to 50 nM

---

The compounds listed here are annotated with their GI50.
# Tested system: BAF3 FL KIT EX11DEL/D816H (Homo sapiens, UniProt P10721, D816H, cells depend on it, form not given)
# Construct: "BAF3 FL KIT EX11DEL/ D816H"
# Sequence (P10721 with tags, fused parts or gaps DEL557-558/D816H, form open): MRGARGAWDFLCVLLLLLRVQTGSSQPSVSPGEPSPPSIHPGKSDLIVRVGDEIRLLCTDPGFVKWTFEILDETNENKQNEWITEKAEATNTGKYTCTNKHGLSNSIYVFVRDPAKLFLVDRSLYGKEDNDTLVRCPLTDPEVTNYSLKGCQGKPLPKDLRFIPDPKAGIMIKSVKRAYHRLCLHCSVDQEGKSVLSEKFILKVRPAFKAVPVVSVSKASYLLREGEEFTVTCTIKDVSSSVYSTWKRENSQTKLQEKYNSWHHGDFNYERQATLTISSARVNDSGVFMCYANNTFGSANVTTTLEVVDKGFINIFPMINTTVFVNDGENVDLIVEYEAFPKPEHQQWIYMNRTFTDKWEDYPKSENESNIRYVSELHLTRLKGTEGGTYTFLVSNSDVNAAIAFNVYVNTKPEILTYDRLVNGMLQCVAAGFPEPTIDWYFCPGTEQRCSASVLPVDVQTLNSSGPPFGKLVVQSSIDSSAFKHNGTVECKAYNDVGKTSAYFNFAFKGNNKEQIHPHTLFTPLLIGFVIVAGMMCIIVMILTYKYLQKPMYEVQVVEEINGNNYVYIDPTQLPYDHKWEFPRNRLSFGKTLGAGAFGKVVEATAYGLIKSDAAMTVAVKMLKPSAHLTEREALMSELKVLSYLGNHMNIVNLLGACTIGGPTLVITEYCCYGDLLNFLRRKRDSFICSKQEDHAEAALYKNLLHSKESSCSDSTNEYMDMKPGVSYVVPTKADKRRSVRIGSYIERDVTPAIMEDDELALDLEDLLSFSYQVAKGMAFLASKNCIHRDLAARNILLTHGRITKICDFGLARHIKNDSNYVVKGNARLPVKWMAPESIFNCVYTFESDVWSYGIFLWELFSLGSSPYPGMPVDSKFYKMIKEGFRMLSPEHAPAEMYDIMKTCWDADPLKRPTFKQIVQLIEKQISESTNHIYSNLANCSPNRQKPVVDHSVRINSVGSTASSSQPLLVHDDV
# Assay remarks: c-Kit assay: Ba/F3 KIT mutant viability (Cell Titer-Glo, 72 hours)
# Assay type: cell-based
# Condition summary: viability after 72 hours

Supply measured GI50 of Cc1ccc(NC(=O)c2ccc(CN3CCOCC3)c(C(F)(F)F)c2)cc1C#Cc1ccc2c(c1)ncn2-c1cnn(C)c1 [Compound I-48] in your reply. 50 to 100 nM

Supply measured GI50 of Cc1ccc(C(=O)Nc2cc(C(F)(F)F)ccn2)cc1C#Cc1ccc2c(c1)ncn2CCN1CCOCC1 [Compound I-5] in your reply. 100 to 10000 nM

Supply measured GI50 of Cc1ccc(C(=O)Nc2cc(C(F)(F)F)ccn2)cc1C#Cc1ccc2c(c1)ncn2-c1cnn(C2CCN(C)CC2)c1 [Compound I-27] in your reply. 10 to 50 nM

Supply measured GI50 of Cc1ccc(C(=O)Nc2cc(C(F)(F)F)ccn2)cc1C#Cc1ccc2c(c1)ncn2-c1ccccc1 [Compound I-21] in your reply. 100 to 10000 nM

Supply measured GI50 of CNC(=O)Cn1cnc2cc(C#Cc3cc(C(=O)Nc4cc(C(F)(F)F)ccn4)ccc3C)ccc21 [Compound I-1] in your reply. 100 to 10000 nM

Supply measured GI50 of Cc1ccc(C(=O)Nc2cc(C(F)(F)F)ccn2)cc1C#Cc1ccc2c(c1)ncn2-c1ccc(N2CCN(C)CC2)cc1 [Compound I-15] in your reply. 100 to 10000 nM

Supply measured GI50 of Cc1ccc(C(=O)Nc2cc(C(F)(F)F)ccn2)cc1C#Cc1ccc2c(c1)ncn2-c1cccc(N2CCN(C)CC2)c1 [Compound I-14] in your reply. 100 to 10000 nM

---

# Tested system: BAF3 FL KIT EX11DEL/V654A (Homo sapiens, UniProt P10721, V654A, cells depend on it, form not given)
# Construct: "BAF3 FL KIT EX11DEL/ V654A"
# Assay remarks: c-Kit assay: Ba/F3 KIT mutant viability (Cell Titer-Glo, 72 hours)
# Assay type: cell-based
# Condition summary: viability after 72 hours
The compounds listed here are annotated with their GI50.

Known GI50 results, listed for orientation:
INSERT INTO assay_data (compound, assay_value) VALUES
  ('CCN(CC)CCn1cc(-n2cnc3cc(C#Cc4cc(NC(=O)c5cc(C(F)(F)F)ccn5)ccc4C)ccc32)cn1 [Compound I-42]', '50 to 100 nM'),
  ('COCCn1cc(-n2cnc3cc(C#Cc4cc(NC(=O)c5cc(C(F)(F)F)ccn5)ccc4C)ccc32)cn1 [Compound I-38]', '10 to 50 nM'),
  ('Cc1ccc(C(=O)Nc2cc(C(F)(F)F)ccn2)cc1C#Cc1ccc2c(c1)ncn2Cc1cccnc1 [Compound I-12]', '100 to 10000 nM');

For the next question, use this compound.
Supply measured GI50 of Cc1ccc(C(=O)Nc2cc(C(F)(F)F)ccn2)cc1C#Cc1ccc2c(c1)ncn2-c1cccc(N2CCN(C)CC2)c1 [Compound I-14] in your reply. 100 to 10000 nM

---

# Tested system: BAF3 FL KIT EX11DEL/V654A (Homo sapiens, UniProt P10721, V654A, cells depend on it, form not given)
# Construct: "BAF3 FL KIT EX11DEL/ V654A"
# Assay remarks: c-Kit assay: Ba/F3 KIT mutant viability (Cell Titer-Glo, 72 hours)
# Assay type: cell-based
# Condition summary: viability after 72 hours
The compounds listed here are annotated with their GI50.

Known GI50 results, listed for orientation:
INSERT INTO results (compound, measured_endpoint, assay_value) VALUES
  ('Cc1ccc(C(=O)Nc2cc(C(F)(F)F)ccn2)cc1C#Cc1ccc2c(c1)ncn2-c1cnn(C)c1 [Compound I-17]', 'GI50', '10 to 50 nM'),
  ('Cc1ccc(NC(=O)c2ccc(CN3CCN(C)CC3)c(C(F)(F)F)c2)cc1C#Cc1ccc2c(c1)ncn2C [Compound I-18]', 'GI50', '100 to 10000 nM'),
  ('Cc1ccc(C(=O)Nc2cc(C(F)(F)F)ccn2)cc1C#Cc1ccc2c(c1)ncn2-c1cnn(C2CCN(C)CC2)c1 [Compound I-27]', 'GI50', '10 to 50 nM'),
  ('Cc1ccc(NC(=O)c2cc(C(F)(F)F)ccn2)cc1C#Cc1ccc2c(c1)ncn2-c1cn[nH]c1 [Compound I-43]', 'GI50', '100 to 10000 nM'),
  ('Cc1ccc(C(=O)Nc2cc(C(F)(F)F)ccn2)cc1C#Cc1ccc2c(c1)ncn2-c1ccc(N2CCN(C)CC2)cc1 [Compound I-15]', 'GI50', '100 to 10000 nM');

Supply measured GI50 of CCn1cnc2cc(C#Cc3cc(C(=O)Nc4cc(C(F)(F)F)ccn4)ccc3C)ccc21 [Compound I-7] in your reply. 100 to 10000 nM

Supply measured GI50 of COCCn1cc(-n2cnc3cc(C#Cc4cc(C(=O)Nc5cc(C(F)(F)F)ccn5)ccc4C)ccc32)cn1 [Compound I-32] in your reply. 10 to 50 nM

---

The compounds listed here are annotated with their GI50.
# Tested system: BAF3 FL KIT EX11DEL/D816H (Homo sapiens, UniProt P10721, D816H, cells depend on it, form not given)
# Construct: "BAF3 FL KIT EX11DEL/ D816H"
# Assay remarks: c-Kit assay: Ba/F3 KIT mutant viability (Cell Titer-Glo, 72 hours)
# Format: cell-based
# Condition summary: viability after 72 hours
# Procedure: KIT cDNAs were synthesized by GenScript and cloned into the pLVX-IRES-Puro vector (Clontech). Viral particles were produced by transfecting pLVX-IRES-puro vectors containing KIT mutant genes into HEK293 cells (Invitrogen) using the Trans-Lentiviral ORF Packaging Kit (Thermo Scientific). 48 hours post-transfection, virus-containing supernatants were harvested and incubated for another 48-72 hours with parental Ba/F3 cells (DSMZ) in the presence of 10 ng/mL L-3 (R&D Systems). […]

INSERT INTO measurements (compound, assay_value) VALUES
  ('Cc1ccc(C(=O)Nc2cc(C(F)(F)F)ccn2)cc1C#Cc1ccc2c(c1)ncn2-c1cnn(C)c1 [Compound I-17]', '50 to 100 nM');

Supply measured GI50 of `Cc1ccc(NC(=O)c2cc(C(F)(F)F)ccn2)cc1C#Cc1ccc2c(c1)ncn2-c1cn(C)nn1` in your reply. 10 to 50 nM

Supply measured GI50 of Cc1ccc(C(=O)Nc2cc(C(F)(F)F)ccn2)cc1C#Cc1ccc2c(c1)ncn2-c1cnn(C)c1 [Compound I-19] in your reply. 10 to 50 nM

Supply measured GI50 of `Cc1ccc(C(=O)Nc2ccc(CN3CCCC3)c(C(F)(F)F)c2)cc1C#Cc1ccc2c(c1)ncn2C` in your reply. 100 to 10000 nM

---

The compounds listed here are annotated with their GI50.
# Tested system: BAF3 FL KIT EX11DEL (Homo sapiens, UniProt P10721, cells depend on it, form not given)
# Construct: "BAF3 FL KIT EX11DEL"
# Sequence (P10721 with tags, fused parts or gaps DEL557-558): as the sequence (P10721 with tags, fused parts or gaps DEL557-558/V654A, form open) above, with A652V counted along it
# Assay remarks: c-Kit assay: Ba/F3 KIT mutant viability (Cell Titer-Glo, 72 hours)
# Type: cell-based
# Condition summary: viability after 72 hours

Known GI50 results, listed for orientation:
INSERT INTO assay_data (compound, assay_value) VALUES
  ('Cc1ccc(C(=O)Nc2cc(C(F)(F)F)ccn2)cc1C#Cc1ccc2c(c1)ncn2-c1cnn(C)c1 [Compound I-19]', '< 10 nM'),
  ('Cc1ccc(C(=O)Nc2cc(C(F)(F)F)ccn2)cc1C#Cc1ccc2c(c1)ncn2-c1ccc(N2CCN(C)CC2)cc1', '50 to 100 nM'),
  ('Cc1ccc(C(=O)Nc2cc(C(F)(F)F)ccn2)cc1C#Cc1ccc2c(c1)ncn2CCCN(C)C', '10 to 50 nM'),
  ('Cn1cc(-n2cnc3cc(C#Cc4cc(C(=O)Nc5cc(C(F)(F)F)ccn5)ccc4F)ccc32)cn1', '< 10 nM'),
  ('Cc1ccc(C(=O)Nc2cc(C(F)(F)F)ccn2)cc1C#Cc1ccc2c(c1)ncn2C', '10 to 50 nM');

Supply measured GI50 of `Cc1ccc(C(=O)Nc2cc(C(F)(F)F)ccn2)cc1C#Cc1ccc2c(c1)ncn2-c1cn(C)nn1` in your reply. < 10 nM

Supply measured GI50 of `Cc1ccc(C(=O)Nc2cc(C(F)(F)F)ccn2)cc1C#Cc1ccc2c(c1)ncn2-c1ccccc1` in your reply. 100 to 10000 nM
